system: NCI-H226; assay: NCI tumour cell line growth inhibition, 48 h
Calls of active or inactive are those of the source. Cut-off read from the data, not from the text of the source: active = GI50 up to about 1.1 µM and inactive = higher.
Please answer using one outcome listed in 1 for active, 0 for inactive

INSERT INTO assay_data (compound, class) VALUES
  ('CCCCN(CCCC)/C(=N\C#N)NCc1ccccc1', 0),
  ('Cn1ccnc1C(O)(c1nccn1C)c1nccn1C', 0),
  ('Cc1cc(=O)nc(Sc2ccc([N+](=O)[O-])cc2[N+](=O)[O-])[nH]1', 0),
  ('COC(=O)c1c(O)ccc2c1c1c(n2Cc2cccc(C)c2)C(=O)c2ccccc2C1=O', 0),
  ('Cc1cc(C)nc(NS(=O)(=O)c2ccc(NNc3c4ccccc4nc4c(C(=O)Nc5ccc(S(=O)(=O)Nc6ncccn6)cc5)cccc34)cc2)n1', 0),
  ('C=C1C(=O)O[C@@H]2C[C@@H](C)[C@@H]3C=CC(=O)[C@@]3(C)[C@@H](O)[C@H]12 [HELENALIN]', 0),
  ('CC(NCCS(=O)(=O)O)C(=O)O (stereo not given)', 0),
  ('Cc1cc(O)c2c(c1)C(=O)C(c1c(C)cc3c(c1O)C(=O)C1OC1C3=O)=CC2=O (stereo not given)', 0),
  ('COc1ccc(C2N(c3ccc(C)c(N=C=O)c3)C(=O)N3C(c4ccc(OC)cc4)N(c4ccc(C)c(N=C=O)c4)C(=O)N23)cc1 (stereo not given)', 0),
  ('N#Cc1ccccc1NC(=O)C(=O)C1NC(=S)NC1=O (stereo not given)', 0);

Data request: Dear all, I need the recorded test outcome for `N#Cc1[nH]c(=O)n(-c2ccc(Cl)cc2)c1N` , thank you.
Data returned: 0

Data request: Assay result, entry `Cc1cccc2nc3c(C(=O)NCCN(C)C)cccc3cc12` — outcome?
Data returned: 1

Data request: Could you check what this test reported for CCN1CC2=C(NC(=S)NC2c2ccc(Cl)cc2)/C(=C/c2ccc(Cl)cc2)C1 (stereo not given) ?
Data returned: 0

Data request: For this compound, state the assay outcome: `CCOC(=O)CSc1nc2ccccc2c(=O)n1N`
Data returned: 0

Data request: Per the assay record, what outcome was assigned to `CCCCCCc1cc2cc(-c3cn4ccsc4n3)c(=O)oc2cc1O` ?
Data returned: 0

Data request: Any idea what this test logged for `c1ccc(/N=C2\S/C(=N\C3CCCCC3)N(C3CCCCC3)\C2=N/c2ccccc2)cc1` ?
Data returned: 0

Data request: Assay outcome for `CCOc1ccccc1/N=C(/NC(=O)CC)SC` : what was it?
Data returned: 0

Data request: Test call for this compound, please: `O=C(/C=C1\Sc2ccccc2N=C1CC(=O)c1ccccc1)c1ccccc1`
Data returned: 0

Data request: Recorded test call requested for `O=C(NCCO)c1ccc(Cl)cc1`
Data returned: 0

Data request: Field: outcome | Entry: `Cc1nnc(S(=O)(=O)c2ccc(/N=N/c3c(N)nc(N)nc3N)cc2)s1`
Data returned: 0

====

Measured GI50 of individual entries
system: HCT-116; experiment: NCI tumour cell line growth inhibition, 48 h
Activity calls are given as the source filed them. Rule as the data show it: active = GI50 up to about 1.1 µM and inactive = higher.

For orientation, consider the following solved cases.
INSERT INTO results (compound, parameter_measured, experimental_result) VALUES
  ('COC(=O)c1cc(-c2ccc(-c3ccc(O)cc3)cc2)cc(-c2ccc(-c3ccc(O)cc3)cc2)c1', 'GI50', '5.64 µM (inactive)'),
  ('CC1(C)CC(=O)C(CC2C(=O)c3ccccc3C2=O)C(=O)C1', 'GI50', '> 100 µM (inactive)'),
  ('Cc1cc(NS(=O)(=O)c2ccc(NC(=O)c3ccc(Cl)c4c(Nc5ccc(S(N)(=O)=O)cc5)c5ccccc5nc34)cc2)no1', 'GI50', '15.2 µM (inactive)');

Data request: I would be grateful if you could share the reported GI50 for Cc1cc(N)c2ccccc2[n+]1CCCCCCCCCC[n+]1c(C)cc(N)c2ccccc21 [DEQUALINIUM CHLORIDE] .
Data returned: 1.31 µM (inactive)

Data request: Fill in: GI50 of O=C(CC1(O)C(=O)Nc2c(Cl)cc(Cl)cc21)c1ccccc1 (centres undefined) is ___
Data returned: 50.5 µM (inactive)

Data request: # lookup: GI50 of `CC(=O)Nc1ccc(NCC(=O)Nn2cnc3ccc(S(=O)(=O)Nc4ccc(NC(C)=O)cc4)cc3c2=O)cc1`
Data returned: > 100 µM (inactive)

Data request: Which GI50 reading was recorded for the compound `COC(=O)c1c(O)ccc2c1c1c(n2Cc2cccc(C)c2)C(=O)c2ccccc2C1` ?
Data returned: 7.85 µM (inactive)

Data request: I would be grateful if you could share the reported GI50 for `O=C(CCCN1CCC(Nc2ccc(F)cc2)(c2nnnn2C2CCCCC2)CC1)c1ccc(F)cc1` .
Data returned: 13.2 µM (inactive)

Data request: Report GI50 for CN1C(=O)C(CCO)(C(C)(C)C)c2ccccc21 (centres undefined) please.
Data returned: > 100 µM (inactive)

====

system: RPMI-8226; test: NCI tumour cell line growth inhibition, 48 h
The source made the active and inactive calls. Rule as the data show it: active = GI50 up to about 1.1 µM and inactive = higher.
Output constraint: value belongs to active, inactive

Use these answered entries as a reference point.
INSERT INTO assay_data (compound, class) VALUES
  ('COc1ccc(C(=O)c2sc(Nc3ccccc3)nc2N)cc1', 'inactive'),
  ('O=C1CCCCC[C@]12SC[C@H]1CON=C12', 'inactive'),
  ('O=C(O)CCc1coc2ccc(O)cc12', 'inactive'),
  ('O=C(CCc1ccccc1)On1c(-c2ccccc2)nc2ccccc2c1=S', 'inactive'),
  ('O=P(Nc1ccccc1)(Oc1ccccc1)N1CCN(c2ccccc2)CC1 (stereo unspecified)', 'inactive'),
  ('Cc1ccn2c(c1)nc1nc3ccccc3nc12', 'inactive'),
  ('Oc1ncc(Cl)c(O)n1', 'inactive'),
  ('CCOC(=O)CCC(NC(=O)C(CCC(=O)OCC)NC(=O)C(Cc1ccc([N+](=O)[O-])cc1)NC(C)=O)C(=O)NNC(=O)OC(C)(C)C (stereo unspecified)', 'inactive'),
  ('Cc1cc(C)nc(NS(=O)(=O)c2ccc(NNc3c4ccccc4nc4c(C(=O)Nc5ccc(S(=O)(=O)Nc6ncccn6)cc5)cccc34)cc2)n1', 'inactive'),
  ('Cc1c(C(=O)CSc2nc3ccccc3[nH]2)c(=O)n(-c2ccccc2)n1C', 'inactive');

Data request: Which outcome did this test record for the compound `N#Cc1[nH]c(=O)n(-c2ccc(Cl)cc2)c1N` ?
Data returned: inactive

Data request: Would you mind telling me which call this test gave CCN1CC2=C(NC(=S)NC2c2ccc(Cl)cc2)/C(=C/c2ccc(Cl)cc2)C1 (stereo unspecified) ?
Data returned: inactive

====

tested on: NCI-H23; test: NCI tumour cell line growth inhibition, 48 h
Active and inactive are the calls of the source. Rule as the data show it: active = GI50 up to about 1.1 µM and inactive = higher.
parameter-measured: GI50

Would you please look over these solved cases?
INSERT INTO assay_data (compound, parameter_measured, experimental_result) VALUES
  ('C=C1[C@@H]2CCC3[C@]4(C)C(CC[C@@]5(C)C(=O)O[C@H](O)[C@@H]45)[C@H](O)[C@]3(C2)[C@H]1OC1OC(CO)C(O)C(O)C1O (stereo not given in full)', 'GI50', '> 50 µM (inactive)'),
  ('C=C1C(=O)O[C@@H]2C[C@@H](C)[C@@H]3C=CC(=O)[C@@]3(C)[C@@H](O)[C@H]12', 'GI50', '1.66 µM (inactive)'),
  ('CC(/C=N/N=C1NCCCN1)=N\N=C1NCCCN1', 'GI50', '> 100 µM (inactive)');

Data request: Reported GI50, compound `CC(C)c1ccc(/C(C(=O)O)=C(\O)C(=O)O)cc1` : ____
Data returned: > 100 µM (inactive)

Data request: Need GI50, item `CC(C)c1ccccc1NC(=O)/C(Cl)=C1/Sc2ccccc2NC1=O`
Data returned: 19.6 µM (inactive)

====

system: CAKI-1; assay: NCI tumour cell line growth inhibition, 48 h
Active and inactive are the calls of the source. No stated cut-off is given here; in the data, active = GI50 up to about 1.1 µM and inactive = higher.
parameter-measured: GI50

// solved cases for GI50 follow
INSERT INTO measurements (molecule, subject_of_test, experimental_result) VALUES
  ('COc1ccc(C2Oc3c(cc(O)c(OC)c3C)[C@@H]2C)cc1OC (stereo not given in full)', 'CAKI-1', '37.2 µM (inactive)'),
  ('Cc1cc(N(CCC#N)S(=O)(=O)c2ccccc2)ccc1/C=C1N=C(/C=C/c2ccccc2)OC\1=O', 'CAKI-1', '> 100 µM (inactive)'),
  ('COc1cc2c(NCCCCCO)ncnc2c(OC)c1OC', 'CAKI-1', '> 100 µM (inactive)'),
  ('CC[C@@H]1CSC(/C=C/C2OC3OC(C)(C)OC3C3OC(C)(C)OC23)=N1 (stereo not given in full)', 'CAKI-1', '11.1 µM (inactive)'),
  ('COC(=O)C1=COC2OC3C(C(C)O)C(=O)OC34C=CC1C24 (stereo not given)', 'CAKI-1', '55 µM (inactive)');

Data request: Dear colleague, I am looking for the recorded GI50 of the following molecule: Cc1ccc(NC(=O)CC(=O)N2N=C(c3ccccc3)C(/N=N/c3ccc(S(=O)(=O)CCOS(=O)(=O)O)cc3)C2=O)cc1 (stereo not given)
Data returned: > 100 µM (inactive)

Data request: Query: GI50; subject: `CSc1cc(-c2cccs2)sc1-c1cc(SC)c(-c2sc(-c3sc(-c4cccs4)cc3SC)cc2SC)s1`
Data returned: > 100 µM (inactive)

Data request: Requested field: GI50. Item: `Clc1nc(Cl)nc(Nc2cccc3ccccc23)n1`
Data returned: > 10 µM (inactive)
